- Tested on: RXRa DBDmut IVT, anti-RXR (DBD mutation: RXRa K156A/R161A, NR concentration 90 nM)
- protocolSummary: PBM binding z-score (relative to random genomic background probes); higher = stronger binding; sequences stand for … in GC…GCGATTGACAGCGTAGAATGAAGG
Label scheme for PBM binding z-score: lower than 0.1 is rule not met, 0.1 and above is rule met.

[ask] Item "GCTAGTTGGTCAGTAAAAGGTCACACCCCGGTCG" with PBM binding z-score of 0.1 or above?
[reply] rule not met

[ask] Item "AATACAGGGTCACTAGGCCAGAATAGGTACGAAT" with PBM binding z-score of 0.1 or above?
[reply] rule met

[ask] Item "CTCGAAAGGTCGTGCTCACGTGAGTATACCAAAC" with PBM binding z-score of 0.1 or above?
[reply] rule met

[ask] Item "ACTCAAAGTTCAGGACGAGGTAACGTAAAGCACG" with PBM binding z-score of 0.1 or above?
[reply] rule met

[ask] Item "GCTTGTCGATCAAGGTTAAGAAAGACTAAGCTAA" with PBM binding z-score of 0.1 or above?
[reply] rule not met

[ask] Item "GCTTGTAGATTAAGGTTAAGAAAGACTAAGCTAA" with PBM binding z-score of 0.1 or above?
[reply] rule met
